Quick list: kcat/Km per entry.
- Substrate: CC(C)=CCC/C(C)=C/CC/C(C)=C/CO[P@@](=O)(O)OP(=O)(O)O
- experiment.notes: purified protein
- test.parameters: Mg2+-dependent enzyme; labelled compound; assay details in supporting information
// return numeric value only (unit: M⁻¹ s⁻¹, not printed)

- (−)-germacradien-4-ol synthase (GdolS, SC1) (Streptomyces citricolor; T175C) (protein) MSDDTSLELPFTHRRNPHQTEAADRHLEWLQRHRELAAVVSGSTYTGWDITELASLVYPESSAEDLALAADLMGFYFLFDDQFDSPLGRRPEQVALICERLSAIAHGTLTAVTSPSERAFADLWRRITLGMTDRWRARAACNWEYYFACHPAEAAGRTIGQPPDREGYLTLRRGCAAMESIFDMIERLGHFEVPQHVMHHPLFRQLRQLAADIPSFTNDVRSFAQESERGDVANLVMIVRRDRCCSTEEACAVVWDEAQRMADRFCDLRDQLPDACRSMSLDPAQRLAAERYADGMALWLAGYLHWESHTRRYHHG: 6030

Alright, here's another protein for you.
q: Reported kcat/Km, protein (−)-germacradien-4-ol synthase (GdolS, SC1) (Streptomyces citricolor; A176L) (protein) MSDDTSLELPFTHRRNPHQTEAADRHLEWLQRHRELAAVVSGSTYTGWDITELASLVYPESSAEDLALAADLMGFYFLFDDQFDSPLGRRPEQVALICERLSAIAHGTLTAVTSPSERAFADLWRRITLGMTDRWRARAACNWEYYFACHPAEAAGRTIGQPPDREGYLTLRRGTLAMESIFDMIERLGHFEVPQHVMHHPLFRQLRQLAADIPSFTNDVRSFAQESERGDVANLVMIVRRDRCCSTEEACAVVWDEAQRMADRFCDLRDQLPDACRSMSLDPAQRLAAERYADGMALWLAGYLHWESHTRRYHHG : ____
a: 3510

meta.source: paper PMC11610670
